Origin of measurements: patent US20110118131A1

assayed_system: T1, Ep-CAM (UniProt P16422 24-265, limits assumed)
T1 construct: Antigen of the Biacore analysis of ING-1 variants
T1 sequence (looked up): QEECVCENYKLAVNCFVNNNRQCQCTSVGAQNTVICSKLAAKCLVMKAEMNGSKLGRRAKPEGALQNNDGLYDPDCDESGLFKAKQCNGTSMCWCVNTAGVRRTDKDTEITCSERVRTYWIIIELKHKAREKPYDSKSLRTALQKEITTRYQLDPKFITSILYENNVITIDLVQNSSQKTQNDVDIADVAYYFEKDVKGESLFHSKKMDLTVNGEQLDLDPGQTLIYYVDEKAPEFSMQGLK
experiment_description: Biacore, Fab periplasmic extract
measurement_kind: fold difference in affinity vs original (fold)

[
  {
    "binder": "ING-1 heavy chain T59H (Fab, V domains shown) VH: QIQLVQSGPELKKPGETVKISCKASGYTFTKYGMNWVKQAPGKGLKWMGWINTYTEEPHYGDDFKGRFAFSLETSASTANLQINNLKSEDTATYFCARFGSAVDYWGQGTSVTVSS VL: DIVMTQAAFSNPVTLGTSGSISCRSSKSLLHSNGITYLYWYLQKPGQSPQLLIYQMSNLASGVPDRFSSSGSGTDFTLRISRVEAEDVGVYYCAQNLELPRTFGGGTKLEMKR",
    "measurement_kind": "fold difference in affinity vs original",
    "val": 0.4
  },
  {
    "binder": "ING-1 heavy chain W50F (Fab, V domains shown) VH: QIQLVQSGPELKKPGETVKISCKASGYTFTKYGMNWVKQAPGKGLKWMGFINTYTEEPTYGDDFKGRFAFSLETSASTANLQINNLKSEDTATYFCARFGSAVDYWGQGTSVTVSS VL: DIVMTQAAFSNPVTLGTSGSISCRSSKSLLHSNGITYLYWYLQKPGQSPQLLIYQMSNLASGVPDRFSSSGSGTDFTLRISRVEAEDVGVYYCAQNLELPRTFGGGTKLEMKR",
    "measurement_kind": "fold difference in affinity vs original",
    "val": 0.09
  },
  {
    "binder": "ING-1 heavy chain Y32Q (Fab, V domains shown) VH: QIQLVQSGPELKKPGETVKISCKASGYTFTKQGMNWVKQAPGKGLKWMGWINTYTEEPTYGDDFKGRFAFSLETSASTANLQINNLKSEDTATYFCARFGSAVDYWGQGTSVTVSS VL: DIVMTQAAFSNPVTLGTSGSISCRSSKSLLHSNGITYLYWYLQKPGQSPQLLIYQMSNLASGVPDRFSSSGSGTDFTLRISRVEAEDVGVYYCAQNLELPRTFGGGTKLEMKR",
    "measurement_kind": "fold difference in affinity vs original",
    "val": 0.1
  }
]
